# targetEntity: HLA-B*07:02
# assayNotes: IEDB peptide-MHC binding, purified MHC/direct/fluorescence; filed as Kd, often an IC50 or EC50 that approximates it; bounds were set here for any values at or beyond the usual limits of such assays
# conditionSummary: source organism: Salmonella enterica
measuredParameter: Kd

q: Write down Kd measured for item ALMRWRHPR
a: ≥ 20 µM

---

# targetEntity: HLA-A*69:01
# assayNotes: IEDB peptide-MHC binding, purified MHC/direct/fluorescence; filed as Kd, often an IC50 or EC50 that approximates it; bounds were set here for any values at or beyond the usual limits of such assays
# conditionSummary: source organism: Giardia lamblia ATCC 50803
pKd: −log10 of the molar value.
# key: entry, value: pKd

Examples with their reported pKd follow.
* ISYTYNDNW | ≤ 4.70
* GMLSSLHTL | ≤ 4.70

The record that follows has no pKd shown yet.
q: Give the reported pKd for this sequence. ITFHNQRDF
a: ≤ 4.70
